- System: COLO 205 colon
- runDescription: NCI tumour cell line growth inhibition, 48 h

- chemicalString: "COC(=O)c1ccc(-c2nc3cc(F)c(F)cc3nc2C#N)cc1"
  GI50: "13 µM"
- chemicalString: "COc1cccc2c(Nc3ccc(C(=O)NCCNCCO)cc3)cc(-c3ccccc3)nc12"
  GI50: "23.6 µM"
- chemicalString: "Cn1cc(-c2nc(-c3c[nH]c4ncccc34)cs2)c2cc(Cl)ccc21"
  GI50: "3.74 µM"
- chemicalString: "O=C(CSc1nc2ccc([N+](=O)[O-])cc2[nH]1)Nc1cccc(C(F)(F)F)c1"
  GI50: "1.71 µM"
- chemicalString: "CCOC(=O)c1sc2ncn(Cc3cccc(Cl)c3)c(=O)c2c1C"
  GI50: "20.7 µM"
- chemicalString: "Cc1ccc2c(/C=C/C(=O)c3cc(CN4CCOCC4)c(O)c4nc(C)ccc34)cc(CN3CCOCC3)c(O)c2n1"
  GI50: "1.82 µM"

---

TGI: recorded values
- System: SR leukemia
- runDescription: NCI tumour cell line growth inhibition, 48 h
outcomeMeasure: TGI

- compound: "C=CC[P@@]1(=O)O[C@H](c2ccccc2)C(C)N1C(C)C (some centres undefined)"
  outcomeMeasure: "TGI"
  assayResult: "> 100 µM"
- compound: "c1ccc2nc3c(nc2c1)sc1nc2ccccc2n13"
  outcomeMeasure: "TGI"
  assayResult: "> 100 µM"
- compound: "COC(=O)C1=C(O)C(C(=O)OC)[C@]2(O)[C@H](C(=O)OC)[C@H]1C[C@@H](c1ccc(O)cc1)[C@H]2C(=O)OC (some centres undefined)"
  outcomeMeasure: "TGI"
  assayResult: "> 100 µM"
- compound: "CCCCn1c(C)c(C)c2c1NN=C(C#N)S2(=O)=O"
  outcomeMeasure: "TGI"
  assayResult: "> 100 µM"
- compound: "Clc1ccc(Nc2ccnc(NCCNc3ccnc4cc(Cl)ccc34)n2)cc1"
  outcomeMeasure: "TGI"
  assayResult: "3.43 µM"
- compound: "CC[C@@]1(O)C(=O)OCc2c1cc1n(c2=O)Cc2c-1nc1ccccc1c2C=Nc1ccc(N[C@@H]2c3cc4c(cc3[C@@H](c3cc(OC)c(O)c(OC)c3)[C@H]3C(=O)OC[C@@H]32)OCO4)cc1"
  outcomeMeasure: "TGI"
  assayResult: "28.2 µM"
- compound: "C(=C\\c1ccccc1)/Cn1nc(-c2ccccc2)nc1-c1cnccn1"
  outcomeMeasure: "TGI"
  assayResult: "> 100 µM"
- compound: "CC12CC(=O)OC(Cc3ccccc31)O2 (centres undefined)"
  outcomeMeasure: "TGI"
  assayResult: "> 100 µM"
- compound: "O=C(CSc1nc2ccc([N+](=O)[O-])cc2[nH]1)Nc1cccc(C(F)(F)F)c1"
  outcomeMeasure: "TGI"
  assayResult: "> 43.7 µM"
- compound: "CC(C)SC1SCC2C(=O)N(C)C3(CC3C)C(=O)OCC(NC(=O)c3nc4ccccc4cc3O)C(=O)NC(C)C(=O)N(C)C1C(=O)N(C)C1(CC1C)C(=O)OCC(NC(=O)c1nc3ccccc3cc1O)C(=O)NC(C)C(=O)N2C (centres undefined)"
  outcomeMeasure: "TGI"
  assayResult: "< 0.0001 µM"
- compound: "N.N.NCCCCN.O=C([O-])CC(=O)[O-].O=C([O-])CC(=O)[O-].[Pt+4].[Pt+4]"
  outcomeMeasure: "TGI"
  assayResult: "> 100 µM"
- compound: "OCc1ccc(N(Cc2ccc(F)cc2)C2CCC2)cc1Cl"
  outcomeMeasure: "TGI"
  assayResult: "35 µM"
- compound: "COc1ccc(/C=C/C(=N/NC(=O)N/N=C(/C=C/c2ccc(OC)cc2)C(C)C)C(C)C)cc1"
  outcomeMeasure: "TGI"
  assayResult: "> 100 µM"
- compound: "COc1ccc(/C=C/C(=O)c2cccc(C(=O)/C=C/c3ccc(OC)c(OC)c3)n2)cc1OC"
  outcomeMeasure: "TGI"
  assayResult: "> 25.9 µM"
- compound: "O=C(/C=C/c1ccsc1)c1cccs1"
  outcomeMeasure: "TGI"
  assayResult: "> 10 µM"
- compound: "C=C1C(=O)OC2C1C(OC(=O)/C(C)=C/C)CC(O)(CCl)C1C(OC(C)=O)C=C(C)C21O (centres undefined)"
  outcomeMeasure: "TGI"
  assayResult: "26.1 µM"
- compound: "COc1ccc2c(c1OC)C(Br)CCC(Br)(Br)C2=O (centres undefined)"
  outcomeMeasure: "TGI"
  assayResult: "4.22 µM"
- compound: "Clc1ccc(N2COOC3(OOC2)C2CC4CC(C2)CC3C4)cc1"
  outcomeMeasure: "TGI"
  assayResult: "11.4 µM"
- compound: "O=C1CCCSCCCC(=O)CCCSCCC1"
  outcomeMeasure: "TGI"
  assayResult: "> 100 µM"

---

- Test system: RXF 393 renal
- runDescription: NCI tumour cell line growth inhibition, 48 h
TGI: recorded values

- compound: "CCCOP1(=O)C=C(C)C(Cl)=C(C)C1 (stereo unspecified)"
  system: "RXF 393 renal"
  relationQualifier: "="
  TGI / µM: 57
- compound: "O=C(Nc1cccc(NS(=O)(=O)c2ccc(F)cc2)c1)c1ccc(-c2ccccc2)cc1"
  system: "RXF 393 renal"
  relationQualifier: "="
  TGI / µM: 20.7
- compound: "O=C1C(c2ccc(Cl)cc2)=[N+]([O-])c2ccccc21"
  system: "RXF 393 renal"
  relationQualifier: "="
  TGI / µM: 23
- compound: "COc1cccc2c(Nc3ccc(C(=O)NCCNCCO)cc3)cc(-c3ccccc3)nc12"
  system: "RXF 393 renal"
  relationQualifier: "="
  TGI / µM: 93.1
- compound: "CC1=CC(=C(c2ccc(N)c(C)c2)c2ccc(N)c(C)c2)C=CC1=N"
  system: "RXF 393 renal"
  relationQualifier: "="
  TGI / µM: 51.2
- compound: "CCOC(=O)C12C3CCC1C2C(=O)C3 (stereo unspecified)"
  system: "RXF 393 renal"
  relationQualifier: ">"
  TGI / µM: 100

---

- System: SR leukemia
- runDescription: NCI tumour cell line growth inhibition, 48 h
TGI: recorded values
outcomeMeasure: TGI (µM)

- compound: "O=c1oc2ccccc2cc1-c1ccc([N+](=O)[O-])cc1"
  system: "SR leukemia"
  outcomeMeasure: "TGI"
  relationQualifier: ">"
  assayResult: 100
- compound: "N/C(=N\\Nc1cccc(Cl)c1)c1cccnc1"
  system: "SR leukemia"
  outcomeMeasure: "TGI"
  relationQualifier: "="
  assayResult: 64.9
- compound: "CC1=CCP(C(F)(F)F)P(C(F)(F)F)C1 (stereo not given)"
  system: "SR leukemia"
  outcomeMeasure: "TGI"
  relationQualifier: ">"
  assayResult: 100
- compound: "N#C[C@]12CC3(CC[C@H]1CC1(C2)OCCO1)OCCO3"
  system: "SR leukemia"
  outcomeMeasure: "TGI"
  relationQualifier: ">"
  assayResult: 100
- compound: "C=C[C@@]1(C)CC(=O)[C@]2(O)[C@@]3(C)[C@@H](OC(C)=O)CCC(C)(C)[C@@H]3[C@H](O)[C@H](OC(C)=O)[C@@]2(C)O1"
  system: "SR leukemia"
  outcomeMeasure: "TGI"
  relationQualifier: ">"
  assayResult: 100
- compound: "COC1/C=C/C(C)C(C(C)C(OC)C(C)CCC(=O)C(C)C(CC(=O)O)OC)OC(=O)/C=C/C=C(\\C)CC(OC)C(OC)C2=CC(=O)O[C@@H](C(C)C(OC)CC(OC)/C=C/C(C)C(O)C1)[C@H]2O (stereo not given in full)"
  system: "SR leukemia"
  outcomeMeasure: "TGI"
  relationQualifier: ">"
  assayResult: 1.07
- compound: "Cc1cccc(/C=N/NC(=S)NC2CCCCC2)n1"
  system: "SR leukemia"
  outcomeMeasure: "TGI"
  relationQualifier: ">"
  assayResult: 78.3
- compound: "C=CCN1C(=O)/C(=C/c2ccccc2)N=C1SC/C=C/C"
  system: "SR leukemia"
  outcomeMeasure: "TGI"
  relationQualifier: "="
  assayResult: 23.3
- compound: "Nc1nc(SCC(=O)O)[nH]c(=O)c1N"
  system: "SR leukemia"
  outcomeMeasure: "TGI"
  relationQualifier: "="
  assayResult: 77.7
- compound: "CCCCCCCCCCCCOCCCCCCCCC/C=C/c1ccc2c(c1)OCCOCCOCCOCCO2"
  system: "SR leukemia"
  outcomeMeasure: "TGI"
  relationQualifier: "="
  assayResult: 49.1

---

- System: SN12C renal
- runDescription: NCI tumour cell line growth inhibition, 48 h
TGI: recorded values

- compound: "CCC12CCC(O)C1N(C)CCC2Sc1ccccc1 (configuration not stated)"
  system: "SN12C renal"
  TGI: "> 100 µM"
- compound: "Cc1ccc(C)c(-n2c(-c3ccc(Br)cc3)csc2=NC(=O)c2ccccc2F)c1"
  system: "SN12C renal"
  TGI: "> 100 µM"
- compound: "CN(C)CCCNC(=O)c1cc(NC(=O)c2cc(NC(=O)CCCN3c4ccccc4C=Cc4ccccc43)cn2C)cn1C"
  system: "SN12C renal"
  TGI: "43 µM"
- compound: "O=S(=O)(O)c1ccc(N=Nc2c(O)ccc3ccccc23)cc1"
  system: "SN12C renal"
  TGI: "> 100 µM"
- compound: "COc1ccc(C(=O)c2cc(OC)c(OC)c(OC)c2)cc1/C=C/C(=O)c1ccc(O)cc1"
  system: "SN12C renal"
  TGI: "12.6 µM"
- compound: "CC(C)(C)c1cc(C(C)(C)C)c(P=C(Cl)Cl)c(C(C)(C)C)c1 (configuration not stated)"
  system: "SN12C renal"
  TGI: "> 100 µM"
- compound: "N#Cc1c(-c2cccc(Br)c2)cc(-c2ccc(Cl)cc2)nc1N"
  system: "SN12C renal"
  TGI: "35.9 µM"
- compound: "N#Cc1c(Cl)cccc1Oc1ccc(S(=O)(=O)/N=C(\\NO)Nc2ccc(Cl)cc2)cc1"
  system: "SN12C renal"
  TGI: "29.4 µM"
- compound: "O=C(O)C1CCCN1Cc1c[nH]c2ccccc12 (configuration not stated)"
  system: "SN12C renal"
  TGI: "> 100 µM"
- compound: "O=NN(CCCl)C(=O)NCc1ccc[n+]([O-])c1"
  system: "SN12C renal"
  TGI: "> 100 µM"
- compound: "CCOC(=O)/C(=C\\NC[C@@H](C)O)c1nc2ccccc2[nH]1"
  system: "SN12C renal"
  TGI: "> 100 µM"
- compound: "C=CC[P@@]1(=O)O[C@H](c2ccccc2)C(C)N1C(C)C (some centres not stated)"
  system: "SN12C renal"
  TGI: "> 100 µM"
- compound: "CCC(C)C1=C(O)[N+]2([O-])Oc3ccc(-c4c(O)c(O)c(-c5ccc(O)cc5)c(OC(C)=O)c4OC(C)=O)cc3OC2(C(C)CC)C(=O)N1O (configuration not stated)"
  system: "SN12C renal"
  TGI: "> 50 µM"
- compound: "CCOC(=O)c1[nH]c2cccc3c2c1CC(Br)C3=O (configuration not stated)"
  system: "SN12C renal"
  TGI: "30.9 µM"
- compound: "COP(=N[Si](C)(C)C)(OC)OC"
  system: "SN12C renal"
  TGI: "> 100 µM"
- compound: "Cc1ccc(C)c(NC(=O)CC2C(=O)Nc3ccccc3S2(=O)=O)c1 (configuration not stated)"
  system: "SN12C renal"
  TGI: "> 100 µM"
- compound: "O=C(Nc1ccccc1)O/N=C1/CCCC/C1=C\\c1ccccc1"
  system: "SN12C renal"
  TGI: "31 µM"
- compound: "CC1=C(C(=O)Nc2ccc(F)c(Cl)c2)C(c2cccc(O)c2)NC(=S)N1 (configuration not stated)"
  system: "SN12C renal"
  TGI: "39.2 µM"
- compound: "COC(=O)C1=C(O)C(C(=O)OC)[C@]2(O)[C@H](C(=O)OC)[C@H]1C[C@@H](c1ccc(O)cc1)[C@H]2C(=O)OC (some centres not stated)"
  system: "SN12C renal"
  TGI: "> 100 µM"
- compound: "CC(C)(C)c1ccc(Oc2ccc(C#N)c(C#N)c2)c(C(C)(C)C)c1"
  system: "SN12C renal"
  TGI: "> 100 µM"
- compound: "O=C(/C=C/c1ccsc1)c1cccs1"
  system: "SN12C renal"
  TGI: "41.9 µM"
- compound: "N#CC12CCC(O)C(CC1)C2=O (configuration not stated)"
  system: "SN12C renal"
  TGI: "> 100 µM"
